Assay: Pharmacokinetics in dog
Conditions: in vivo
recorded.endpoint: clearance (mL/min/kg)

a. CNC(=O)N1CCN(Cc2ccnc(Nc3ncc(C#N)s3)c2)CC1 [Compound 4-4]
b. CC(=O)N1CCN(Cc2ccnc(Nc3ncc(C#N)s3)c2C)CC1
Exercise: Which value of clearance is smaller, the one for a or the one for b ? Return value: the label identifying the chosen record.
Solution: a

----------
Experiment: Pharmacokinetics in rhesus monkey
Conditions: in vivo
recorded.endpoint: clearance (L/h/kg)

I. CNC(=O)N1CCN(Cc2ccnc(Nc3ncc(C#N)s3)c2)CC1
II. CS(=O)(=O)C1CCN(Cc2ccnc(Nc3ncc(C#N)s3)c2)CC1
Exercise: Which value of clearance is smaller, the one for I or the one for II ? Return value: the label identifying the chosen record.
Solution: II
(II: 0.18 L/h/kg, I: 0.804 L/h/kg)

Reference source: patent US20030100567A1
